SYSTEM: Cytochrome P450 2D6 (Homo sapiens) (UniProt P10635)
Sequence (P10635 whole entry, looked up): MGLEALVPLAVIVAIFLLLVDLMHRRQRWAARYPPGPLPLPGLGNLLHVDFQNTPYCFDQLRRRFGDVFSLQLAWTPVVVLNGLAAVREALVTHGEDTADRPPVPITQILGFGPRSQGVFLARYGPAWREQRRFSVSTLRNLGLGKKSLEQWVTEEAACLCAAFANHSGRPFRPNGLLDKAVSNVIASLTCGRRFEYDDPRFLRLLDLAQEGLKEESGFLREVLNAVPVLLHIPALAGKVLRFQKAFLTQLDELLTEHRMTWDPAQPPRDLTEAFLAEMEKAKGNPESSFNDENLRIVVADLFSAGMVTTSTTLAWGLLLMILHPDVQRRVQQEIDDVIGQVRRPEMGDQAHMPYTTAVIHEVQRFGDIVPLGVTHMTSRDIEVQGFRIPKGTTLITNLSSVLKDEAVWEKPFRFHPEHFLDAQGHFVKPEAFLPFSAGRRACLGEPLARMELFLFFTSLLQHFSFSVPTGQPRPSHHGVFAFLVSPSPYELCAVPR
TEST_DESCRIPTION: Cytochrome P450 Family 2 Subfamily D Member 6 (CYP2D6) small molecule antagonists: luciferase reporter qHTS assay (AID 1671196); also: nearly all actives have a fitted effect of over 50% in size
CONDITION_LABEL: P450-Glo CYP2D6 enzyme assay, luciferin luminescence, 1 h; series mostly up to 115 µM
Results filed as inconclusive are left out. The source made the active and inactive calls. Calls follow the shape of the dose curve; as a rule, active = well fitted inhibition curve with a large enough effect in the repeat runs; inconclusive = weak or mixed curves; inactive = no such curve, though single readings can be large or run the other way.
Outcomes you can answer with include only these: active, inactive

Below, 6 compounds whose answers are already recorded.
INSERT INTO measurements (compound, assigned_label) VALUES
  ('CCCC[N+]1(C)[C@@H]2CC(OC(=O)[C@H](CO)c3ccccc3)C[C@H]1[C@@H]1O[C@@H]12 (some centres not stated)', 'active'),
  ('Cc1nc(N(C)C)nc(OC(=O)N(C)C)c1C', 'inactive'),
  ('Cc1cccc(C)c1NC1=NCCCS1', 'active'),
  ('O=C([O-])c1ccccn1.O=C([O-])c1ccccn1.O=C([O-])c1ccccn1.[Cr+3]', 'active'),
  ('O=C(CCl)CCl', 'inactive'),
  ('CCOC(=O)c1cncn1C(C)c1ccccc1 (configuration not stated)', 'inactive');

Prompt line: Called result for OCCSSCCO
Response line: inactive

Prompt line: Called result for c1ccc2c(c1)sc1ccccc12
Response line: inactive

Prompt line: Called result for CCc1cnc(C2=NC(C)(C(C)C)C(=O)N2)c(C(=O)O)c1 (configuration not stated)
Response line: inactive

Prompt line: Called result for O=C(O)C(F)(F)C(F)(F)C(F)(F)C(F)(F)C(F)(F)C(F)(F)C(F)(F)C(F)(F)F
Response line: inactive

Prompt line: Called result for CN1CC[C@]23c4c5ccc(O)c4O[C@H]2[C@@H](O)CC[C@H]3[C@H]1C5
Response line: active

Prompt line: Called result for CC(Oc1cc(Cl)c(Cl)cc1Cl)C(=O)O (configuration not stated)
Response line: inactive

Prompt line: Called result for CC(Cc1ccccc1)NCc1ccccc1Cl (configuration not stated)
Response line: active

Prompt line: Called result for ClCc1ccccc1Cl
Response line: inactive

====

TEST_DESCRIPTION: qHTS assay to identify small molecule agonists of the NFkB signaling pathway - cell viability counter screen (AID 1159515); also: nearly all actives have a fitted effect of over 55% in size
CONDITION_LABEL: NFkB-bla ME-180 viability, CellTiter-Glo luminescence, 5 h; series mostly up to 61 µM
Inconclusive results are not listed. Calls of active or inactive are those of the source. The call rests on the fitted dose curve.
Outcomes you can answer with include only these: yes (1) for active, no (0) for inactive

Below, 8 compounds whose answers are already recorded.
INSERT INTO assay_data (compound, assigned_label) VALUES
  ('CN(C1CCCCC1)C1CCCCC1', 'no (0)'),
  ('O=C(Cc1ccccc1)c1ccccc1', 'no (0)'),
  ('CC(C)(C)NCC(O)c1cc(Cl)c(N)c(C(F)(F)F)c1 (stereo not given)', 'no (0)'),
  ('O=CC=O', 'no (0)'),
  ('SCc1ccccc1', 'no (0)'),
  ('CC(C)(C)CC(C)(C)c1ccc(O)cc1', 'yes (1)'),
  ('COc1ccc2c(c1OC)C(=O)O[C@H]2[C@@H]1c2cc3c(cc2CCN1C)OCO3', 'no (0)'),
  ('CCCSP(=S)(OCC)Oc1ccc(SC)cc1 (stereo not given)', 'no (0)');

Prompt line: Called result for CC(=O)OC(c1ccccc1)C(Cl)(Cl)Cl (stereo not given)
Response line: no (0)

Prompt line: Called result for CC(C)(C)NCC(O)c1ccccc1Cl (stereo not given)
Response line: no (0)
